# Tested on: SN12C
# assay_comment: NCI tumour cell line growth inhibition, 48 h
Calls of active or inactive are those of the source. Cut-off read from the data, not from the text of the source: active = GI50 up to about 1.1 µM and inactive = higher.
GI50 overview

Below: 10 compounds and their reported GI50.
>>> result("C=CCCCC1CCCNC1=S (configuration not stated)")
"> 100 µM (inactive)"
>>> result("CCCCCCCCCCCC(=O)OCC1OC(n2cc(F)c(=O)[nH]c2=O)C(N)C(O)C1O (configuration not stated)")
"> 100 µM (inactive)"
>>> result("COC(=O)[C@]12CC3C=CC1N(C3)C(CBr)c1c2n(S(=O)(=O)c2ccccc2)c2ccccc12 (some centres not stated)")
"> 100 µM (inactive)"
>>> result("C#C[C@H]1CCCCCC1O (some centres not stated)")
"> 100 µM (inactive)"
>>> result("CCCCCCCCCCCCCCN")
"> 100 µM (inactive)"
>>> result("CCCCNC(=O)OCC(COc1ccccc1OC)OC(=O)NCCCC (configuration not stated)")
"> 100 µM (inactive)"
>>> result("CN(Cc1cnc2nc(N)nc(N)c2n1)c1ccc(C(=O)NC(CCC(=O)NCCC(P(=O)(O)O)P(=O)(O)O)C(=O)O)cc1 (configuration not stated)")
"11 µM (inactive)"
>>> result("CSc1nc(-c2ccc(C)cc2)c(C#N)c(=O)[nH]1")
"> 100 µM (inactive)"
>>> result("CO/C=C(/C(=O)OC)c1ccccc1[C@H]1C[C@@H]1c1ccc(OC)cc1")
"32.1 µM (inactive)"
>>> result("COP(=O)(OC)/C(=C\\C1=CN(C(c2ccccc2)(c2ccccc2)c2ccccc2)CN1)NC=O")
"18.3 µM (inactive)"

State the recorded GI50 for this entry: C=C1CC(C)(c2ccc(Nc3nc4ccccc4c4occc34)cc2)OC1=O (configuration not stated)
1.93 µM (inactive)

So what's the measured GI50 for this one? "ClC1=C(Cc2ccccc2)Cc2ccc3c(c21)CCC3"
34.4 µM (inactive)

Any idea what its GI50 is? The compound is "CC(=O)O[C@H]1[C@@H](N2CCOCC2)C[C@H]2[C@@H]3CC=C4C[C@@H](N5CCCC5)CC[C@]4(C)[C@H]3CC[C@@]21C"
> 100 µM (inactive)

---

# Tested on: MCF7
# assay_comment: NCI tumour cell line growth inhibition, 48 h
Active and inactive are the calls of the source. No stated cut-off is given here; in the data, active = GI50 up to about 1.1 µM and inactive = higher.
property: GI50

Some molecules with known GI50 results, for comparison:
>>> result("CCOC1=NC(C(F)(F)F)(C(F)(F)F)N=C(/N=C(/N)N(C)C(C(C)C)P(=O)(OC(C)C)OC(C)C)O1 (centres undefined)")
"> 100 µM (inactive)"
>>> result("O=C1Oc2ccccc2C(=O)/C1=C1/C=C(c2ccccc2)SS1")
"> 100 µM (inactive)"
>>> result("COC(=O)[C@]12CC3C=CC1N(C3)C(CBr)c1c2n(S(=O)(=O)c2ccccc2)c2ccccc12 (some centres undefined)")
"46.9 µM (inactive)"
>>> result("N#CCCN(CCNc1ccccc1)C(=O)Nc1ccc(NC(=O)N(CCC#N)CCNc2ccccc2)cc1")
"> 100 µM (inactive)"

// returns reported GI50 for input "COC(=O)C1=Cc2cc(OC)c(O)cc2[C@@H](c2ccc(O)c(OC)c2)[C@@H]1C(=O)OC"
> 100 µM (inactive)

GI50 for "CSc1n[n+](C)cc(N)c1N" ?
> 100 µM (inactive)
